- Tested on: RPMI-8226 leukemia
- procedure_details: NCI-60 one-dose screen, 48 h
- condition_context: 10 µM unless noted
The panel holds about 83,000 compounds, 20% with a hit somewhere; the sample as a whole holds those more often. The source made the active and inactive calls. Rule for the calls: active = growth percent below 10; inactive = the rest.
Just give me one of these, please: active, inactive

Recorded test call requested for COC(C(=O)[C@@H](O)[C@@H](C)O)[C@@H]1Cc2cc3cc(O[C@H]4C[C@@H](O[C@H]5C[C@@H](O)[C@H](O)C(C)O5)[C@H](O)C(C)O4)c(C)c(O)c3c(O)c2C(=O)[C@H]1O[C@H]1C[C@@H](O[C@H]2C[C@@H](O[C@H]3C[C@@H](O)[C@H](OC)C(C)O3)[C@@H](O)C(C)O2)[C@H](O)C(C)O1 (stereo partly drawn)
active

Recorded test call requested for "O=C(Nc1ccc(-c2nc(N3CCOCC3)c3cccn3n2)cc1)Nc1cccnc1"
active

Recorded test call requested for "CC1=Nc2cnc(Nc3ccc(OCCN4CCCCC4)cc3)nc2Nc2ccccc21"
inactive

Recorded test call requested for "CN1CCN(C(=O)c2ccc(NC(=O)Nc3ccc(-c4nc(N5CCOCC5)c5cccn5n4)cc3)cc2)CC1"
active

Recorded test call requested for "CN(CCn1sc(=O)n(Cc2ccccc2)c1=O)Cc1ccc2c(Cl)cc(Cl)c(O)c2n1"
inactive

Recorded test call requested for "N#C/C(=C/c1ccc([N+](=O)[O-])cc1)n1nnc2cc(F)c(F)cc21"
active

Recorded test call requested for "N#Cc1cccc(F)c1"
inactive

Recorded test call requested for "CCN1CCN(Cc2cn(CC(=O)Nc3ccc4c(ccn4Cc4ccccc4)c3)nn2)CC1"
inactive

Recorded test call requested for "C=CC(=O)NCc1ccc(Nc2nccc(-c3ccc(N4CCCC4)c(C#N)c3)n2)cc1"
inactive

Recorded test call requested for "N#Cc1nn(-c2cc(=O)[nH]c3ccc(Cl)cc23)c(N)c1C#N"
active

Recorded test call requested for Nc1nc(=S)c2ncn(C3OC(COP(=O)(O)O)C(O)C3O)c2[nH]1 (stereo not drawn)
inactive

Recorded test call requested for "Fc1cccc(CNc2c3ccccc3nc3ccccc23)c1F"
inactive

Recorded test call requested for "CCCCC(=O)Nc1ncc(Cc2ccc(Cl)cc2)s1"
inactive

Recorded test call requested for "CCc1ccc(Oc2cn[nH]c2-c2ccc(OCCc3ccc(F)cc3)cc2O)cc1"
inactive

Recorded test call requested for "CCN(CC)C(=S)SC(SC(=S)N(CC)CC)C(=O)c1nnn(-c2ccc([N+](=O)[O-])cc2)c1C"
inactive

Recorded test call requested for "CC(=O)OC[C@]12CCC(C)(C)C[C@H]1[C@@]1(O)[C@H](O)C[C@@H]3[C@@]4(C)CCCNC(C)(C)[C@@H]4CC[C@@]3(C)[C@]1(C)CC2"
inactive

Recorded test call requested for "CCS/C(Nc1ccccc1)=C(\C#N)C(=O)N/N=C/c1ccc(Cl)cc1Cl"
active

Recorded test call requested for "CN(C)Cc1ccc(NC(=O)c2cncc(C#Cc3cnc(N)c4ncccc34)c2)cc1F"
inactive

###

- Test system: A498 renal
- procedure_details: NCI-60 one-dose screen, 48 h (100 = growth as untreated, 0 = no growth, -100 = all killed)
- condition_context: 10 µM unless noted
About 83,000 compounds went through this panel and 20% of them were active in at least one assay; those are over-represented in the sample as a whole.
Exercise: for every item that follows, state its recorded growth.
# unit: % | format: bare number

Which growth is listed for "COc1cc2oc(-c3cccc(NC(=O)c4cccc(Br)c4)c3)cc(=O)c2c(OC)c1OC" ?
46.6

Which growth is listed for CN1C(=O)N(C)C2Nn3c(s/c(=C\c4ccc(C(F)(F)F)cc4)c3=O)=NC21 (centres undefined) ?
109

Which growth is listed for "O=C1c2ccc3c4ccc5c6c(ccc(c7ccc(c2c37)C(=O)N1CCC[P+](c1ccccc1)(c1ccccc1)c1ccccc1)c64)C(=O)N(CCC[P+](c1ccccc1)(c1ccccc1)c1ccccc1)C5=O" ?
78.1

Which growth is listed for "Cc1nc(N2CCOCC2)sc1S(N)(=O)=O" ?
93.4

###

- Test system: BT-549 breast
- procedure_details: NCI-60 one-dose screen, 48 h (100 = growth as untreated, 0 = no growth, -100 = all killed)
- condition_context: 10 µM unless noted
The panel holds about 83,000 compounds, 20% with a hit somewhere; the sample as a whole holds those more often. Active and inactive are the calls of the source. How the source made its calls: active means growth percent below 10; inactive means the rest.
reported_metric: growth

Which growth is listed for "O=C1/C(=C/c2ccc(F)cc2)COc2ccc(O)cc21" ?
78.2% (inactive)

Which growth is listed for "Cc1ccc(/C=C2\CN(C(=O)OC(C)(C)C)C/C(=C\c3ccc(C)cc3)C2=O)cc1" ?
99.9% (inactive)

Which growth is listed for "CN1CCN(C(=O)c2ccc(NC(=O)Nc3ccc(-c4nc(N5CCOCC5)c5cccn5n4)cc3)cc2)CC1" ?
-9.61% (active)

Which growth is listed for "CCOC(=O)/C=C1\S/C(=N\Nc2cc(=O)[nH]c3ccc(Cl)cc23)N(c2ccccc2)C1=O" ?
93.7% (inactive)

Which growth is listed for "COc1cc(-c2csc(NC(=O)c3cc(-n4cnc(C)c4)cc(C(F)(F)F)c3)n2)cc(OC)c1OC" ?
47.4% (inactive)

Which growth is listed for "COc1ccccc1NC(=O)Cn1cc(CN2CCN(c3ccnc4cc(Cl)ccc34)CC2)nn1" ?
96.8% (inactive)

Which growth is listed for "C=CCn1cc(-c2nc3ccccc3s2)c2cc(-c3ccc4c5c(cccc35)C(=O)N(N)C4=O)ccc21" ?
94.4% (inactive)

Which growth is listed for "C#CCOc1cccc(Nc2ncnc3c(NC(=O)C=C)cccc23)c1" ?
8.49% (active)

Which growth is listed for "COc1cccc(NC(=O)Cn2cc(CN3CCN(c4ccnc5cc(Cl)ccc45)CC3)nn2)c1" ?
77.2% (inactive)

Which growth is listed for COc1ccc(C(=O)C2C(c3ccc(OC)cc3)CN(C)C23C(=O)Nc2ccccc23)cc1 (centres undefined) ?
105% (inactive)

Which growth is listed for "O=C1/C(=C/c2ccc(Cl)c(Cl)c2)CN(C(=O)C(Cl)Cl)C/C1=C\c1ccc(Cl)c(Cl)c1" ?
-58.5% (active)

Which growth is listed for "CCN(c1ccc(Cl)cc1)c1nc(-c2ccc([N+](=O)[O-])cc2)cs1" ?
115% (inactive)

Which growth is listed for "Oc1ccc(CCn2c(O)c(/C=C3\CN=c4ccccc4=N3)sc2=S)cc1" ?
43.8% (inactive)

Which growth is listed for "COc1ccc(-c2nn(-c3ccccc3)cc2/C=C2/SC(=S)N(C)C2=O)cc1" ?
102% (inactive)

Which growth is listed for "O=C1/C(=C/c2ccc(F)cc2)COc2ccc(O)c(O)c21" ?
3.57% (active)

Which growth is listed for "COc1ccc(-c2nc3c(c(-c4ccccc4)nn3-c3ccccc3)c(-c3ccc(N4CCN(C)CC4)cc3)c2C#N)cc1" ?
90.6% (inactive)

Which growth is listed for "CCOC(=O)c1nc(Nc2ccc(NC(=O)Nc3ccc(F)cc3)cc2)c2ccccc2n1" ?
106% (inactive)

Which growth is listed for "COCCNC(=O)c1ccc(-c2nc3ccc4[nH]ncc4c3c3c2CCCC3)cc1" ?
10.3% (inactive)

Which growth is listed for "Brc1c2c(c(Br)c3ccccc13)CCCC2" ?
112% (inactive)

Which growth is listed for "CCNc1nc(-c2ccc(Cl)c(OC)c2)c(-c2ccnc(NCCCNS(=O)(=O)c3ccc(Cl)cc3)n2)s1" ?
52% (inactive)

Which growth is listed for "OCc1cccc(-c2ccc3ncc(-c4nc(NC5CC5)ncc4F)n3c2)c1" ?
-7.54% (active)

Which growth is listed for "COc1ccc(-c2nnc3n(C)c(=O)c4ccccc4n23)cc1N" ?
31.2% (inactive)

Which growth is listed for "O=C1c2cccnc2C(=O)c2c1c(C(=O)NCCCN1CCCCC1)c1ccccn21" ?
13.7% (inactive)

Which growth is listed for "Oc1ccc(CN2CCC(N3CCCCC3)CC2)c2cccnc12" ?
38.9% (inactive)

Which growth is listed for "COC(=O)/C=C1/SC(=Nc2ccc(C)cc2)N(CCc2c[nH]c3ccc(O)cc23)C1=O" ?
9.38% (active)

Which growth is listed for "COc1cc(-c2nc3cc(Cl)c(Cl)cc3[nH]2)ccc1OCC(=O)N=Nc1c(O)[nH]c2ccc([N+](=O)[O-])cc12" ?
98.8% (inactive)

Which growth is listed for "Clc1ccc(Nc2nnc(COc3ccccc3)c3ccccc23)cc1" ?
-9.97% (active)

Which growth is listed for "CCOC(=O)C1=NN(c2ccccc2)C(=O)/C1=C\N1C(=O)CC(=O)NC1=S" ?
101% (inactive)

Which growth is listed for "CO[C@H]1/C=C(/C)CCC[C@H](C)[C@H](O)[C@@H](C)C(=O)C(C)(C)[C@@H](O)CC(=O)O[C@@H]1/C(C)=C/c1csc(C)n1" ?
32.3% (inactive)

Which growth is listed for "COc1ccc(C(=O)Nc2ncc(Cc3ccc(F)cc3)s2)cc1" ?
40.4% (inactive)

Which growth is listed for "C#Cc1cccc(Nc2ncnc3ccc(-c4cnc(N)nc4)cc23)c1" ?
28.9% (inactive)

Which growth is listed for "COc1ccc2c3c([nH]c2c1)C(=O)c1nc(C)ccc1C3=O" ?
71.7% (inactive)

Which growth is listed for "COc1ccc(C(=O)Nc2ncc(Cc3cccc(Cl)c3)s2)cc1OC" ?
50.7% (inactive)

Which growth is listed for "CCCCNC(=O)Oc1ccc(/C(=C(/CC)Cc2ccccc2)c2ccc(OCCN3CCCCCC3)cc2)cc1" ?
87.3% (inactive)

Which growth is listed for "O=C1C(Cl)=C(Nc2ccc(O)cc2)C(=O)N1Cc1ccc(Cl)cc1" ?
43.2% (inactive)

Which growth is listed for "O=C(Nc1cc(Cl)ccc1O)c1ccc(Nc2ccnc(C(F)(F)F)c2)cc1" ?
34.5% (inactive)

Which growth is listed for "COc1ccc2c(O)c(/C=C3\N=Nc4ccccc43)oc2c1C[C@@H]1CCNC[C@H]1F" ?
73.8% (inactive)

Which growth is listed for "O=C(CSc1nc2ccc([N+](=O)[O-])cc2[nH]1)Nc1cccc(C(F)(F)F)c1" ?
16.5% (inactive)

Which growth is listed for "Cc1cc(Cl)ccc1Nc1nc(C(F)(F)F)ccc1C(=O)N/N=C/c1ccc([N+](=O)[O-])cc1" ?
6.01% (active)

Data origin, for the record: PubChem BioAssay (NCI)
